# Subject Of Test: Matrix-associated proTGFb1 (hLTBP1, hLTBP3)
# Experimental Protocol: BLI (OCTET), average over matrix-associated complexes
# Format: binding, human
# Condition Context: average KD of (B) and (C), read-out: (D) ECM AVRG
Measured Endpoint: Kd (nM)
Numbers only, in nM.

* Ab30: proTGFβ1 antibody; VH SEQ ID NO: 138, VL SEQ ID NO: 15 (antibody, V domains shown) VH: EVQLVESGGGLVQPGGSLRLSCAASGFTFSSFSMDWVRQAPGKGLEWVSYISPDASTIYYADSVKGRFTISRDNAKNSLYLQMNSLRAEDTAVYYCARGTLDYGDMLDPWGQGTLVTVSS VL: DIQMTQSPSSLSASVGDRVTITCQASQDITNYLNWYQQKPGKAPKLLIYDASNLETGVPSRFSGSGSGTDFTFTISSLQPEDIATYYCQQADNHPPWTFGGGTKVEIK | 0.296

Attention now shifts to the item below.
Q: Look up Kd for this molecule: Ab29: proTGFβ1 antibody; VH SEQ ID NO: 137, VL SEQ ID NO: 15 (antibody, V domains shown) VH: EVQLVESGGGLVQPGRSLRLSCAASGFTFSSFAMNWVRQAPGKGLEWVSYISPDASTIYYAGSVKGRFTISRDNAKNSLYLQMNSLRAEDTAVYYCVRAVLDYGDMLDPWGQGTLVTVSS VL: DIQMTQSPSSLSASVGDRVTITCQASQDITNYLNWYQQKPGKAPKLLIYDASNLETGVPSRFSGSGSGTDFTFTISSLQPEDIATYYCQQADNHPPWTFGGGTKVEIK
Ans: 0.155

Ref: patent US12252531B2
